# Test system: L1210 leukemia ip in BDF1 mice, survival T/C
# Experiment description: NCI In Vivo Anticancer Drug Screen. Data for tumor model L1210 Leukemia (intraperitoneal) in B6D2F1 (BDF1) mice
# Test conditions: endpoint: mean survival time; dose: 200.0 mg/kg/injection; schedule: Q04DX003 (ip); vehicle: saline with Tween-80; higher = longer survival
# Procedure: The antitumor activity of compounds was measured in mice bearing transplantable tumors. Survival or tumor size were measured and the results are expressed as the measurement made in the treated group (T) divided by the measurement made in the vehicle treated control group (C). The tumor model used in this assay is L1210 Leukemia (intraperitoneal) in B6D2F1 (BDF1) mice
Inconclusive results and toxic doses are left out.
Measurement kind: T/C

compound=CC(C)(C)OC(=O)N/N=C/c1ccc([N+](=O)[O-])s1 result="98 % of control"
compound=O=C(NC(=S)Nc1ccc(O)cc1)c1cccc([N+](=O)[O-])c1 result="96 % of control"
compound=CCCCCCSC(=O)Nc1ccc(C)c(NC(=O)SCCCCCC)c1 result="89 % of control"
compound=C/C(=C\COc1ccc2ccc(=O)oc2c1)C1=CC(=O)C(C)(C)O1 result="91 % of control"
compound=CC(=O)N(CC(=O)O)c1ccccc1 result="103 % of control"

Req: Form field: reported T/C of CNC(=O)NC1C(O)C(OC)OC2COC(c3ccccc3)OC21 (configuration not stated)
Resp: 92 % of control

Req: Form field: reported T/C of OCCCCCCCCCCCCO
Resp: 94 % of control

Req: Form field: reported T/C of C=CC1C(C(=O)Nc2ccccc2)CN1C (configuration not stated)
Resp: 107 % of control

Req: Form field: reported T/C of COC(=O)c1ccccc1SSc1ccccc1C(=O)OC
Resp: 102 % of control
